Hello, the source for this data is patent EP0982027A1, in case you need it.

assay-explanation: in vivo
Design: species or system female C3H/HeN mice
measurement-setup: plasma, iv; mouse, 40 mg.kg^-1 i.v.; peak at 2 minutes; read-out: plasma peak level (mean)

compound-smiles | Cmax at 2 min, ng/mL
CO[C@H]1C(=O)[C@]2(C)[C@@H](OC)C[C@H]3OC[C@@]3(OC(C)=O)[C@H]2[C@H](OC(=O)c2ccccc2)[C@]2(O)C[C@H](OC(=O)[C@H](O)[C@@H](NC(=O)OC(C)(C)C)c3ccccc3)C(C)=C1C2(C)C | 46900

---

assay-explanation: in vivo
Set-up: species or system female C3H/HeN mice
measurement-setup: mouse, brain, iv, 40 mg/kg, 40 mg.kg^-1 i.v., 24 h after dose, individual animals IV1-IV4, read-out: Brain product Ic concentration

molecule | concentration at 24 h
CO[C@H]1C(=O)[C@]2(C)[C@@H](OC)C[C@H]3OC[C@@]3(OC(C)=O)[C@H]2[C@H](OC(=O)c2ccccc2)[C@]2(O)C[C@H](OC(=O)[C@H](O)[C@@H](NC(=O)OC(C)(C)C)c3ccccc3)C(C)=C1C2(C)C [product Ia] | 7900 ng/g

---

assay-explanation: in vivo
Set-up: species or system female C3H/HeN mice
measurement-setup: mouse, plasma, iv, 40 mg/kg, 40 mg.kg^-1 i.v., 5 min after dose, MEAN, read-out: Plasma product Ic concentration

molecule | concentration at 5 min
CO[C@H]1C(=O)[C@]2(C)[C@@H](OC)C[C@H]3OC[C@@]3(OC(C)=O)[C@H]2[C@H](OC(=O)c2ccccc2)[C@]2(O)C[C@H](OC(=O)[C@H](O)[C@@H](NC(=O)OC(C)(C)C)c3ccccc3)C(C)=C1C2(C)C [product Ia] | 34300 ng/mL

---

assay-explanation: in vivo
Design: species or system female C3H/HeN mice
measurement-setup: mouse, brain, iv, 40 mg/kg, 40 mg.kg^-1 i.v., 48 h after dose, MEAN, read-out: Brain product Ic concentration
test-readout: concentration at 48 h

compound-smiles | recorded-value
CO[C@H]1C(=O)[C@]2(C)[C@@H](OC)C[C@H]3OC[C@@]3(OC(C)=O)[C@H]2[C@H](OC(=O)c2ccccc2)[C@]2(O)C[C@H](OC(=O)[C@H](O)[C@@H](NC(=O)OC(C)(C)C)c3ccccc3)C(C)=C1C2(C)C | 7720 ng/g

---

assay-explanation: in vivo
Parameters: species or system female C3H/HeN mice
measurement-setup: mouse, plasma, iv, 40 mg/kg, calculated from values ≥ b.l.q. of 20 ng.ml^-1, 40 mg.kg^-1 i.v., mean level data
test-readout: AUC(0-inf) (ng·h/mL)

molecule | recorded-value
CO[C@H]1C(=O)[C@]2(C)[C@@H](OC)C[C@H]3OC[C@@]3(OC(C)=O)[C@H]2[C@H](OC(=O)c2ccccc2)[C@]2(O)C[C@H](OC(=O)[C@H](O)[C@@H](NC(=O)OC(C)(C)C)c3ccccc3)C(C)=C1C2(C)C [product Ia] | 29800

---

assay-explanation: in vivo
Set-up: species or system female C3H/HeN mice
measurement-setup: mouse, brain, iv, 40 mg/kg, 40 mg.kg^-1 i.v., 15 min after dose, MEAN, read-out: Brain product Ic concentration
test-readout: concentration at 0.25 h (ng/g)

compound-smiles | test-readout | units | recorded-value
CO[C@H]1C(=O)[C@]2(C)[C@@H](OC)C[C@H]3OC[C@@]3(OC(C)=O)[C@H]2[C@H](OC(=O)c2ccccc2)[C@]2(O)C[C@H](OC(=O)[C@H](O)[C@@H](NC(=O)OC(C)(C)C)c3ccccc3)C(C)=C1C2(C)C | concentration at 0.25 h | ng/g | 6760
